// provenance: patent US20260262643A1

Form field: Plant response rating, Soybean (one value per entry).
Tested on: soybean
Assay explanation: Test A preemergence
Type: in vivo, Glycine max
Stated conditions: 125 g ai/ha, visual injury after 10 days, 0 to 100 scale, 0 is no effect, 100 is complete control

The examples below pair each entry with its known result.
[
  {
    "Compound": "C[C@H]1CN(C(=O)c2cccc(-n3cncn3)c2)c2cccc(C#N)c2O1",
    "Observation type": "Plant response rating, Soybean",
    "Measured value": 20
  },
  {
    "Compound": "CCC(C)c1ncn(-c2cccc(C(=O)N3C[C@H](C)Oc4c(C)cccc43)c2)n1 (some centres unmarked)",
    "Observation type": "Plant response rating, Soybean",
    "Measured value": 0
  },
  {
    "Compound": "CC1CN(C(=O)c2cccc(-n3cncn3)c2)c2cc(F)cc(F)c2O1 (centres unmarked)",
    "Observation type": "Plant response rating, Soybean",
    "Measured value": 20
  }
]

Dear colleague, I am looking for the recorded Plant response rating, Soybean of the following compound: C[C@H]1CN(C(=O)c2cccc(-n3cnc(CC4CCCCC4)n3)c2)c2cccc(Cl)c2O1 0

Next compound: Cc1ccc(C(=O)N2CC(C)Oc3c(Cl)cccc32)cc1-n1cncn1 (centres unmarked) 0

And then Cc1ccc(-n2cnc(C(C)(C)C)n2)cc1C(=O)N1C[C@H](C)Oc2c(C)cccc21 , what is it? 80

And then CCc1ncn(-c2ccc(C)c(C(=O)N3C[C@H](C)Oc4c(Cl)cccc43)c2)n1 , what is it? 80

Another compound to check: Cc1cccc2c1O[C@@H](C)CN2C(=O)c1cccc(-n2cnc(C3CC3)n2)c1 0

----------
System: blackgrass
Assay explanation: Test A postemergence
Type: in vivo, Alopecurus myosuroides
Stated conditions: 500 g ai/ha, postemergence, 10 days, visual injury, 0 to 100 scale (0 no effect, 100 complete control)
Observation type: Plant response rating, Blackgrass
Write the value as a bare number.

[
  {
    "Structure smiles string": "Cc1cccc2c1O[C@@H](C)CN2C(=O)c1cccc(-n2cnn(C(C)C)c2=O)c1",
    "Measured value": 70
  }
]

# get_value(readout='Plant response rating, Blackgrass', item= C[C@H]1CN(C(=O)c2cccc(-n3cnc(CC4CCCCC4)n3)c2)c2cccc(Cl)c2O1 ) 0

Next: COCCc1ncn(-c2cccc(C(=O)N3C[C@H](C)Oc4c(C)cccc43)c2)n1 90

Repeat with C[C@H]1CN(C(=O)c2cccc(-n3cnc(C(C)(C)C)n3)c2)c2cccc(Cl)c2O1 90

----------
Test system: foxtail, giant
Assay explanation: Test A postemergence
Type: in vivo, Setaria faberi
Stated conditions: 125 g ai/ha, postemergence, 10 days, visual injury, 0 to 100 scale (0 no effect, 100 complete control)
Reported Plant response rating, Foxtail, Giant values for the following compounds.
Give only the figure.

Here's what some known entries look like.
[
  {
    "Compound": "Cc1cccc2c1O[C@@H](C)CN2C(=O)c1cccc(-n2cnc(C(F)(F)F)n2)c1 [Compound 66]",
    "Observation type": "Plant response rating, Foxtail, Giant",
    "Measured value": 20
  },
  {
    "Compound": "CCC1CN(C(=O)c2cccc(-n3cncn3)c2)c2cccc(Cl)c2O1 (racemic) [Compound 7]",
    "Observation type": "Plant response rating, Foxtail, Giant",
    "Measured value": 10
  },
  {
    "Compound": "CCc1ncn(-c2ccc(C)c(C(=O)N3C[C@H](C)Oc4c(Cl)cccc43)c2)n1 [Compound 75]",
    "Observation type": "Plant response rating, Foxtail, Giant",
    "Measured value": 90
  }
]

Here's the next entry for you.
# query: Plant response rating, Foxtail, Giant of entry Cc1ncn(-c2cccc(C(=O)N3C[C@H](C)Oc4c(C)cccc43)c2)n1 [Compound 51] 90

----------
Test system: kochia
Assay explanation: Test A preemergence
Assay type: in vivo, Bassia scoparia
Stated conditions: 1000 g ai/ha, 0 to 100 scale (0 no effect, 100 complete control), 10 days
Catalogue of Plant response rating, Kochia readings, one per entry.
Please reply with the value in numeric form only.

Would you please look over these solved cases?
[
  {
    "Compound": "Cc1cc(C(=O)N2CC(C)Oc3c(Cl)cccc32)cc(-n2cncn2)c1 (centres unmarked) [Compound 32]",
    "System under test": "kochia",
    "Plant response rating, Kochia": 30
  },
  {
    "Compound": "CC1CN(C(=O)c2ccnc(-n3cncn3)c2)c2cccc(Cl)c2O1 (centres unmarked) [Compound 1]",
    "System under test": "kochia",
    "Plant response rating, Kochia": 40
  },
  {
    "Compound": "CCC1CN(C(=O)c2ccnc(-n3cncn3)c2)c2ccc(Cl)cc2O1 (centres unmarked) [Compound 16]",
    "System under test": "kochia",
    "Plant response rating, Kochia": 20
  }
]

Fill in: Plant response rating, Kochia of COc1cccc2c1OC(C)CN2C(=O)c1cccc(-n2cncn2)c1 (centres unmarked) [Compound 41] is ___ 0

Request: C[C@H]1CN(C(=O)c2cccc(-n3cccn3)c2)c2cccc(Cl)c2O1 [Compound 129] 20

Then this compound: CCC1CN(C(=O)c2ccnc(-n3cncn3)c2)c2cc(Cl)ccc2O1 (centres unmarked) [Compound 12] 0

Item: CC1CN(C(=O)c2cccc(-n3cncn3)c2)c2ccccc2O1 (centres unmarked) [Compound 31] 30

Also CC1CN(C(=O)c2ccnc(-n3cncn3)c2)c2cccc(Cl)c2O1 (centres unmarked) [Compound 10] ? 30

----------
Known Plant response rating, Ryegrass, Italian of a selection of compounds
Tested on: ryegrass, Italian
Assay explanation: Test C postemergence
Type: in vivo, Lolium multiflorum
Stated conditions: Postemergence, 125 g ai/ha; 0 to 100 scale (0 no effect, 100 complete control), 10 days

Reference set (10 entries):
[
  {
    "Compound": "Cc1ccc(-n2cnc(CS(C)(=N)=O)n2)cc1C(=O)N1C[C@H](C)Oc2c(Cl)cccc21 (stereo partly drawn) [Compound 403]",
    "Plant response rating, Ryegrass, Italian": 50
  },
  {
    "Compound": "CC(C)c1ncn(-c2ccc(S(C)(=O)=O)c(C(=O)N3C[C@H](C)Oc4c(Cl)cccc43)c2)n1 [Compound 393]",
    "Plant response rating, Ryegrass, Italian": 10
  },
  {
    "Compound": "CC(C)(C)c1ncn(-c2cccc(C(=O)N3CC(C(F)(F)F)Oc4c(Cl)cccc43)c2)n1 (stereo not drawn) [Compound 353]",
    "Plant response rating, Ryegrass, Italian": 20
  },
  {
    "Compound": "CC(C)(C)c1ncn(-c2cc(C(=O)N3CC(C(F)(F)F)Oc4c(Cl)cccc43)ccn2)n1 (stereo not drawn) [Compound 322]",
    "Plant response rating, Ryegrass, Italian": 20
  },
  {
    "Compound": "CSc1ccc(-n2cnc(C(C)C)n2)cc1C(=O)N1C[C@H](C)Oc2c(Cl)cccc21 [Compound 391]",
    "Plant response rating, Ryegrass, Italian": 50
  },
  {
    "Compound": "C[C@H]1CN(C(=O)c2cccc(-n3cnc(C4CC4)n3)c2)c2cccc(Cl)c2O1 [Compound 325]",
    "Plant response rating, Ryegrass, Italian": 30
  },
  {
    "Compound": "COC[C@H]1CN(C(=O)c2cc(-n3cnc(C(C)C)n3)cc3c2OCCO3)c2cccc(Cl)c2O1 [Compound 395]",
    "Plant response rating, Ryegrass, Italian": 60
  },
  {
    "Compound": "CC(C)c1ncn(-c2ccc(OS(C)(=O)=O)c(C(=O)N3C[C@H](C)Oc4c(Cl)cccc43)c2)n1 [Compound 338]",
    "Plant response rating, Ryegrass, Italian": 70
  },
  {
    "Compound": "COC(=O)c1ncn(-c2ccc(C)c(C(=O)N3C[C@H](C)Oc4c(Cl)cccc43)c2)n1 [Compound 315]",
    "Plant response rating, Ryegrass, Italian": 60
  },
  {
    "Compound": "COC(C)c1ncn(-c2ccc(C)c(C(=O)N3CC(C)Oc4c(Cl)cccc43)c2)n1 (mixture of isomers) [Compound 359]",
    "Plant response rating, Ryegrass, Italian": 90
  }
]

Form field: reported Plant response rating, Ryegrass, Italian of C[C@H]1CN(C(=O)c2cccc(-n3cnc(OS(C)(=O)=O)n3)c2)c2cccc(Cl)c2O1 [Compound 356] 30

Repeat with C=C(C)c1cc(C(=O)N2C[C@H](C)Oc3c(Cl)cccc32)cc(-n2cncn2)c1 [Compound 317] 0

----------
System: kochia
Assay explanation: Test C postemergence
Assay type: in vivo, Bassia scoparia
Stated conditions: 500 g ai/ha, postemergence, 10 days, 0 to 100 scale (0 no effect, 100 complete control)
Observation type: Plant response rating, Kochia
The answer should be a number; do not append a unit.

[
  {
    "Compound": "CC(C)c1ncn(-c2cc(C(=O)N3CC(C(F)(F)F)Oc4c(Cl)cccc43)ccn2)n1 (single isomer, unassigned) [Compound 331]",
    "Observation type": "Plant response rating, Kochia",
    "Measured value": 70
  },
  {
    "Compound": "Cc1ccc(-n2cnc(C(C)O)n2)cc1C(=O)N1CC(C)Oc2c(Cl)cccc21 (mixture of isomers)",
    "Observation type": "Plant response rating, Kochia",
    "Measured value": 70
  }
]

Note: attention shifts to another entry.
I'd like to know its Plant response rating, Kochia. The compound in question is Cc1cccc2c1O[C@@H](C)CN2C(=O)c1cccc(-n2cnc(N(C)S(C)(=O)=O)n2)c1 70
